Attribution: patent US20080095786A9

experiment: Antioxidant screening experiments: stability of E5564 to free-radical oxidation; settings: time 18-22 hours; E5564 solution with the labelled antioxidant (row 'none' = E5564 without antioxidant)
OBSERVABLE: Major Oxidative Degradant
Reply briefly: the number, and no unit.

Quick check: Major Oxidative Degradant of CCCCCC/C=C\CCCCCCCCCC(=O)N[C@H]1[C@H](OC[C@H]2O[C@H](OP(=O)([O-])[O-])[C@H](NC(=O)CC(=O)CCCCCCCCCCC)[C@@H](OCCCCCCCCCC)[C@@H]2O)O[C@H](COC)[C@@H](OP(=O)([O-])[O-])[C@@H]1OCC[C@@H](CCCCCCC)OC.[Na+].[Na+].[Na+].[Na+] ? 6.02

# query: Major Oxidative Degradant of entry O=S([O-])[O-].[Na+].[Na+] [Sodium Sulfite, sodium sulfite] 0.25

What value of Major Oxidative Degradant has been reported for the following compound? O=S([O-])([O-])=S.[Na+].[Na+] [Sodium Thiosulfate, sodium thiosulfate] 0.19

Query (compound): COc1ccc(O)c(C(C)(C)C)c1 [BHA, butylated hydroxyanisole] ; field requested: Major Oxidative Degradant 0.27
